# credit: patent US20080044360A1

assay_target: T1, human collagen type I, acid soluble, extracted from placenta (Sigma C7774) (human, UniProt P02452 162-1218; P08123 80-1119)
T1 construct: tissue extract, gelled and dried in wells; also called dried human collagen; h-Collagen
T1 sequence (P02452 162-1218 limits assumed, chain 1 of 2): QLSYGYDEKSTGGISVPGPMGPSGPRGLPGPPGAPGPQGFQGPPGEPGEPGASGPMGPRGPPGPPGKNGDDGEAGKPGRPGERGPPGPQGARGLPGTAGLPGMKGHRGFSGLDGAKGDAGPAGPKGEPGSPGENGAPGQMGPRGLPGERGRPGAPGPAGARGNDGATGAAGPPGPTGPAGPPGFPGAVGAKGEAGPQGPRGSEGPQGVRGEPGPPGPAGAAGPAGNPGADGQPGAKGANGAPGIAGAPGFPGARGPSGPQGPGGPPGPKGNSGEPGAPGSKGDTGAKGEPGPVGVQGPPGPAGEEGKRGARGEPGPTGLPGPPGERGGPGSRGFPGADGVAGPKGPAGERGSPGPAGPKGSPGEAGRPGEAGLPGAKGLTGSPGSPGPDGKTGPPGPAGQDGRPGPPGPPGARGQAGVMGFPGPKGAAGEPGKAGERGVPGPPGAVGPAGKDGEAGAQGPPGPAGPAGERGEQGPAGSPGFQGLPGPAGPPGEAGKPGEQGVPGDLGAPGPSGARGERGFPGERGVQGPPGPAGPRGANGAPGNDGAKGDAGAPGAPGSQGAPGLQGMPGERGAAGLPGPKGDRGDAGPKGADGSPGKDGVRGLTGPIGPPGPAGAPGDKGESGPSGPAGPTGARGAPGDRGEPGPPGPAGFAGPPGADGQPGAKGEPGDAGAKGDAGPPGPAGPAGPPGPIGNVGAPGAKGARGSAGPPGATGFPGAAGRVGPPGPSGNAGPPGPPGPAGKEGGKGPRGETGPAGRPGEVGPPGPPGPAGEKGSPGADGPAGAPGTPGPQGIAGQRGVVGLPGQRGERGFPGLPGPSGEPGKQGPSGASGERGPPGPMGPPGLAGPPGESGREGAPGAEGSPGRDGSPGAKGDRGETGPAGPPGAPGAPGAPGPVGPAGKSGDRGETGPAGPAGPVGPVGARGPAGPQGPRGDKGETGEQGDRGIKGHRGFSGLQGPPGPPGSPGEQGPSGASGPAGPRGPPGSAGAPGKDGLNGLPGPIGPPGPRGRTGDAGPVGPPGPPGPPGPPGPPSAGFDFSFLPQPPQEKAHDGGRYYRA
T1 sequence (P08123 80-1119 limits assumed, chain 2 of 2): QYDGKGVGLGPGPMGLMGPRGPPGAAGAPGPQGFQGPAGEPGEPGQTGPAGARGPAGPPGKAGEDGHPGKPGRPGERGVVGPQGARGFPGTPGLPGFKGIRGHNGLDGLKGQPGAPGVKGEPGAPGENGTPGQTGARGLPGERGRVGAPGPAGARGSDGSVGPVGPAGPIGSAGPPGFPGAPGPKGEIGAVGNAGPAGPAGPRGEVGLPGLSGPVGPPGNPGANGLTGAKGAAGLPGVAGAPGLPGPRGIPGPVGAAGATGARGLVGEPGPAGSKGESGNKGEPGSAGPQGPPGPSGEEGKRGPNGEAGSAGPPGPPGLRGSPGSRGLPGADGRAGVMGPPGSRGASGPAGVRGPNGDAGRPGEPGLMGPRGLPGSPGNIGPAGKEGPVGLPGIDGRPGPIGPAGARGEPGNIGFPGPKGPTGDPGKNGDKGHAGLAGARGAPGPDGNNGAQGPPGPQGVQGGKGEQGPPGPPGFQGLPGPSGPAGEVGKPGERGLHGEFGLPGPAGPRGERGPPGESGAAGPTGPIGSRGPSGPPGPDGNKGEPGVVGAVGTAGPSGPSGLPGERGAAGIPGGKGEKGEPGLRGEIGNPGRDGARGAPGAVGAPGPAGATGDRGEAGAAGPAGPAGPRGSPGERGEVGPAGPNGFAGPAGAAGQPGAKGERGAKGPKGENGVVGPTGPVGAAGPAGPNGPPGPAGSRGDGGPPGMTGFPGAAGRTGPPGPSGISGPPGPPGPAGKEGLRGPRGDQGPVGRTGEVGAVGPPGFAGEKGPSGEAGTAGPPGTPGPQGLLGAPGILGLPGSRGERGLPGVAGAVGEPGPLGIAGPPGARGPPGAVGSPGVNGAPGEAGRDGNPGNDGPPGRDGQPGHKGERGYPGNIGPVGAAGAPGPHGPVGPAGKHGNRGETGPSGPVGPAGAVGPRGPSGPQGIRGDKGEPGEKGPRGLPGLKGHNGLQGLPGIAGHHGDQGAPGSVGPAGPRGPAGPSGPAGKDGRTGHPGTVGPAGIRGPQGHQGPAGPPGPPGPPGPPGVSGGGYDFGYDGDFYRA
assay_explanation: dried collagen assay
Bridge positions count the residues as written; N and C are the ends. Square brackets hold non-standard residues; d marks the D form. Primed or numbered codes have the meaning given here. Ends that are not written are not given here. Gd^T = not defined here; Gd^T″ = GdDTPA-thiourea
Consider the following binders; for each one, report its % bound.
Quote the value and follow it with the unit of measurement.

{"binder": "{Gd^T″}-DWTC[Tyr(Bn,3-Cl)]GDEYTWHCNYE (disulfide 4-13 (inferred); not fully specified (C-terminus)) [Compound ID 825]", "experimental_result": "61%"}

Let us examine a further case.
Input line: Recorded % bound of {Gd^T}-DWTCSGDEYRWHCNYE (disulfide 4-13 (inferred); not fully specified (C-terminus); reading uncertain) [Compound ID 845] , please.
Output line: 36%
